# Test system: LU-139 (Small Cell Lung Carcinoma)
# test: combination Emax (second highest fraction inhibited in the dose matrix, 72 h); higher = more inhibition; extreme values may be limits of the assay
Reported combination Emax values for a set of compounds
// response body must contain only the number

Record request: combination Emax value, item Cc1c2c(nn1C)CSCc1cc(n(C)n1)CSc1cc(c3ccccc3c1)OCCCc1c(C(=O)O)n(C)c3c-2c(Cl)ccc13 [AZD5991] + CC(=O)O[C@H]1C(=O)[C@@]2(C)[C@H]([C@H](OC(=O)c3ccccc3)[C@]3(O)C[C@H](OC(=O)[C@H](O)[C@@H](NC(=O)c4ccccc4)c4ccccc4)C(C)=C1C3(C)C)[C@]1(OC(C)=O)CO[C@@H]1C[C@@H]2O [Paclitaxel] (first compound max 1 µM, 7x7, partner max 3 µM) 0.649

Record request: combination Emax value, item N#Cc1cnc(Nc2cc(NC[C@H]3CNCCO3)c(C(F)(F)F)cn2)cn1 [SRA737] + C=CCn1c(=O)c2cnc(Nc3ccc(N4CCN(C)CC4)cc3)nc2n1-c1cccc(C(C)(C)O)n1 [AZD1775] (first compound max 10 µM, partner max 1 µM) 0.564

Record request: combination Emax value, item O=C(c1cc(Cc2n[nH]c(=O)c3ccccc23)ccc1F)N1CCN(C(=O)C2CC2)CC1 [Olaparib] + CC1(C)CCC(CN2CCN(c3ccc(C(=O)NS(=O)(=O)c4ccc(NCC5CCOCC5)c([N+](=O)[O-])c4)c(Oc4cnc5[nH]ccc5c4)c3)CC2)=C(c2ccc(Cl)cc2)C1 [Venetoclax] (first compound max 10 µM, 7x7, partner max 1 µM) 0.655

Record request: combination Emax value, item Cc1c2c(nn1C)CSCc1cc(n(C)n1)CSc1cc(c3ccccc3c1)OCCCc1c(C(=O)O)n(C)c3c-2c(Cl)ccc13 [AZD5991] + Cc1cc2ncnn2cc1Nc1ncc2c(n1)n(C1CCOCC1)c(=O)n2C [AZD7648] (first compound max 1 µM, 7x7, partner max 10 µM) 0.243

Record request: combination Emax value, item C=CCn1c(=O)c2cnc(Nc3ccc(N4CCN(C)CC4)cc3)nc2n1-c1cccc(C(C)(C)O)n1 [AZD1775] + O=C(c1cc(Cc2n[nH]c(=O)c3ccccc23)ccc1F)N1CCN(C(=O)C2CC2)CC1 [Olaparib] (first compound max 1 µM, partner max 10 µM) 0.636

Record request: combination Emax value, item Cc1c2c(nn1C)CSCc1cc(n(C)n1)CSc1cc(c3ccccc3c1)OCCCc1c(C(=O)O)n(C)c3c-2c(Cl)ccc13 [AZD5991] + CC1(C)CCC(CN2CCN(c3ccc(C(=O)NS(=O)(=O)c4ccc(NCC5CCOCC5)c([N+](=O)[O-])c4)c(Oc4cnc5[nH]ccc5c4)c3)CC2)=C(c2ccc(Cl)cc2)C1 [Venetoclax] (first compound max 1 µM, 7x7, partner max 1 µM) 0.777

Record request: combination Emax value, item CC1(C)CCC(CN2CCN(c3ccc(C(=O)NS(=O)(=O)c4ccc(NCC5CCOCC5)c([N+](=O)[O-])c4)c(Oc4cnc5[nH]ccc5c4)c3)CC2)=C(c2ccc(Cl)cc2)C1 [Venetoclax] + C=CCn1c(=O)c2cnc(Nc3ccc(N4CCN(C)CC4)cc3)nc2n1-c1cccc(C(C)(C)O)n1 [AZD1775] (first compound max 1 µM, partner max 1 µM) 0.831

Record request: combination Emax value, item C=CCn1c(=O)c2cnc(Nc3ccc(N4CCN(C)CC4)cc3)nc2n1-c1cccc(C(C)(C)O)n1 [AZD1775] + C1CN(CCC1(C(=O)N[C@@H](CCO)C2=CC=C(C=C2)Cl)N)C3=NC=NC4=C3C=CN4 [Capivasertib] (first compound max 3 µM, partner max 3 µM) 0.733

Record request: combination Emax value, item CC(=O)c1c(C)c2cnc(Nc3ccc(N4CCNCC4)cn3)nc2n(C2CCCC2)c1=O [Palbociclib] + CC1(C)CCC(CN2CCN(c3ccc(C(=O)NS(=O)(=O)c4ccc(NCC5CCOCC5)c([N+](=O)[O-])c4)c(Oc4cnc5[nH]ccc5c4)c3)CC2)=C(c2ccc(Cl)cc2)C1 [Venetoclax] (first compound max 10 µM, 7x7, partner max 1 µM) 0.37
